Documented composite z-score across a set of compounds
Test system: XIP peptide (Xip251-270)
method-notes: small-molecule binders of XIP peptide, primary screen, biochemical, small-molecule microarray, fluorescence 635/667 nm, 0.5 µg/mL protein (AID 1183)
reported-conditions: small-molecule microarray binding, fluorescence 635 nm; higher = more signal
measurement-label: composite z-score

>  <compound>
C[N+](C)(C)CCCC[C@@H]1NC(=O)[C@H]2C[C@@H](C(=O)NCCCCCCNC(=O)CS)[C@@H](c3cccc(OCCO)c3)N2C1=O

>  <measurement-target>
XIP peptide (Xip251-270)

>  <measurement-label>
composite z-score

>  <recorded-measurement>
0.487

$$$$
>  <compound>
C=CCC(OC(C)=O)[C@@H]1[C@@H](N(Cc2cccc3ccccc23)C(=O)c2ccc(-c3ccccc3)cc2)c2cc(OCCCO)ccc2N1C(=O)c1ccc2ccccc2c1 (stereo partly drawn)

>  <measurement-target>
XIP peptide (Xip251-270)

>  <measurement-label>
composite z-score

>  <recorded-measurement>
0.0439

$$$$
>  <compound>
CN1C(=O)C2C=CC(C(O)C#Cc3ccccc3)N(N3CCCCC3)C2C1=O (stereo not drawn)

>  <measurement-target>
XIP peptide (Xip251-270)

>  <measurement-label>
composite z-score

>  <recorded-measurement>
0.84

$$$$
>  <compound>
CCc1cccc(NC(=O)O[C@H]2[C@H](OC(=O)Nc3ccccc3-c3ccccc3)[C@@H](OC(=O)Nc3ccccc3-c3ccccc3)[C@@H](OC)O[C@@H]2CO)c1

>  <measurement-target>
XIP peptide (Xip251-270)

>  <measurement-label>
composite z-score

>  <recorded-measurement>
0.859

$$$$
>  <compound>
CC[C@@H]1C=C(C(=O)O)[C@H](c2ccc(Br)cc2)N1S(=O)(=O)c1ccc(C)cc1

>  <measurement-target>
XIP peptide (Xip251-270)

>  <measurement-label>
composite z-score

>  <recorded-measurement>
0.159

$$$$
>  <compound>
Cc1ccc(S[C@]2(C(=O)NCCCN(C)C)CC(=O)N(Cc3cc(C(F)(F)F)cc(C(F)(F)F)c3)[C@@H]2c2ccc(CO)cc2I)cc1

>  <measurement-target>
XIP peptide (Xip251-270)

>  <measurement-label>
composite z-score

>  <recorded-measurement>
-0.878

$$$$
>  <compound>
COC(=O)[C@H](Cc1ccccc1)N[C@@H](/C=C/C1CC1)[C@H](O)Cc1ccccc1

>  <measurement-target>
XIP peptide (Xip251-270)

>  <measurement-label>
composite z-score

>  <recorded-measurement>
-0.432

$$$$
>  <compound>
CCCC[C@H]1OB(O)C[C@H]2C1=C(COC)C[C@H]1C(=O)N(C)C(=O)[C@H]12

>  <measurement-target>
XIP peptide (Xip251-270)

>  <measurement-label>
composite z-score

>  <recorded-measurement>
-0.0711

$$$$

###

Documented z-score across a set of compounds
method-notes: FRG1 promoter luciferase signal modulators, primary screen, FRG1 inhibition for FSHD, cell-based, C2C12 myotubes, firefly/Renilla luciferase, luminescence (AID 1084)
reported-conditions: higher = more signal, called active from +8 up or from −8 down

>  <compound>
O=C1NC(=O)C2C1C=CC(C(O)c1cccs1)N2Nc1ccc(Cl)cc1Cl (stereo not drawn)

>  <z-score>
0.224

$$$$
>  <compound>
C=CC[C@@]1(C(=O)NCCN2CCOCC2)N=C(c2ccc(OCCCO)cc2)O[C@@H]1c1ccccc1N=[N+]=[N-]

>  <z-score>
2.98

$$$$
>  <compound>
Cc1ccccc1C(O)C1C=CC2C(=O)N(c3ccccc3)C(=O)C2N1Nc1ccc(C(C)C)cc1 (stereo not drawn)

>  <z-score>
-0.729

$$$$
>  <compound>
CN1C(=O)C2C=CC(C(O)c3ccco3)N(Nc3ccccc3)C2C1=O (stereo not drawn)

>  <z-score>
0.0122

$$$$
>  <compound>
CC(C)N1C(=O)[C@@]2(Cc3ccccc31)c1ccccc1C(=O)N(Cc1ccccc1Cl)[C@H]2c1ccc(CO)cc1

>  <z-score>
-0.426

$$$$
>  <compound>
O=C1c2ccccc2[C@](Cc2ccccc2I)(C(=O)NCCN2CCOCC2)[C@H](c2ccc(CO)cc2)N1Cc1ccccc1Cl

>  <z-score>
-1.96

$$$$
>  <compound>
CC(C)C(=C=CC[C@@H](O)c1ccc(OCCO)cc1)C[C@@H](O)c1ccccn1

>  <z-score>
0.463

$$$$
>  <compound>
CC(C)[Si](C#Cc1ccc(Oc2ccccc2)cc1)(O[Si](C#Cc1ccc(Oc2ccccc2)cc1)(C(C)C)C(C)C)C(C)C

>  <z-score>
-0.421

$$$$

###

Documented z-score across a set of molecules
method-notes: basal HepG2 mitochondrial membrane potential changes, profiling panel, cell-based, JC-1 fluorescence, 24 h, 100 nL compound (AID 1167)
reported-conditions: higher = more signal

>  <molecule>
C=C(CC1([C@@H](NP(=O)(c2ccccc2)c2ccccc2)[C@H]2C[C@@H]2CCCC)CC1)c1ccccc1

>  <z-score>
-2.48

$$$$
>  <molecule>
COc1cc(C(O)C2C=CC3C(=O)NC(=O)C3N2Nc2ccccn2)cc(OC)c1OC (stereo not drawn)

>  <z-score>
-1.2

$$$$
>  <molecule>
COc1ccc([Si](C)(C)[C@H]2[C@H](CCO)O[C@@]3(C(=O)N(Cc4ccc(N(C=O)c5ccccc5)cc4)c4ccccc43)[C@@H]2C)cc1

>  <z-score>
0.119

$$$$
>  <molecule>
COc1cccc(-c2cccc(=O)o2)c1

>  <z-score>
-1.27

$$$$
>  <molecule>
O=C1c2ccccc2[C@](Cc2ccccc2I)(C(=O)NCCN2CCOCC2)[C@H](c2ccc(CO)cc2)N1Cc1ccccc1Cl

>  <z-score>
1.77

$$$$
>  <molecule>
O=C(NCCN1CCOCC1)C1N=C(c2ccc(OCCCO)cc2)N(c2ccccc2)O1 (stereo not drawn)

>  <z-score>
0.0176

$$$$
>  <molecule>
CCCCCCc1nc(-c2ccc(OC)nc2)cc2c1[Si](C(C)C)(C(C)C)O[C@H]2c1ccccc1

>  <z-score>
-1.14

$$$$
>  <molecule>
C=CCC(OC(C)=O)[C@@H]1[C@@H](N(Cc2ccc(-c3ccccc3)cc2)C(=O)c2cccc3ccccc23)c2cc(OCCCO)ccc2N1C(=O)c1ccc(-c2ccccc2)cc1 (stereo partly drawn)

>  <z-score>
3.13

$$$$

###

Tested on: Sonic hedgehog protein (Shh)
method-notes: small-molecule binders of Shh protein, primary screen, biochemical, small-molecule microarray, 635/667 nm fluorescence (AID 1151);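 note: Shh protein binding to compounds spotted on small-molecule microarray slides; score combines spot fluorescence intensity with signal-to-noise across triplicate slides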
reported-conditions: small-molecule microarray binding, 635 nm fluorescence; higher = more signal
Categorize each record by its composite z-score using bin A = under -0.04, bin B = from -0.04 up to 1, bin C = 1 and over

>  <molecule>
C=CCOC(=O)[C@H]1[C@@H]2C(=O)O[C@@H](c3ccccc3)[C@@H](c3ccccc3)N2[C@@H](c2ccc(OCCOC(=O)[C@H]3C[C@H]4C(=O)N[C@@H](CCCCNC(C)=O)C(=O)N4[C@H]3c3cccc(OCCO)c3)cc2)[C@]12C(=O)Nc1ccccc12

>  <class>
bin C

$$$$
>  <molecule>
C[C@H]1C2[C@H](Cc3ccccc3)NC(=O)[C@]23C(=O)N[C@H](Cc2ccccc2)C(=O)N2CCC[C@H]2C(=O)NC/C=C\C/C=C/C3[C@@H]2O[C@]12C (some centres not stated)

>  <class>
bin B

$$$$
>  <molecule>
O=C1c2ccccc2[C@](Cc2ccccc2I)(C(=O)NCC(F)(F)F)[C@H](c2ccc(CO)cc2)N1Cc1ccccc1Cl

>  <class>
bin C

$$$$
>  <molecule>
CCCC[C@@H]1C[C@H]1[C@@H](NC(=O)C(C)(C)C)c1ccc(C(F)(F)F)cc1

>  <class>
bin A

$$$$
>  <molecule>
COC(=O)[C@@]1(CCS(=O)(=O)c2ccccc2)N=C(c2ccc(OCCCO)cc2)O[C@H]1c1ccccc1CN=[N+]=[N-]

>  <class>
bin B

$$$$
>  <molecule>
COCCOC(=O)N1C(=O)[C@@]2(c3ccccc31)[C@H](c1ccccc1OCCO)N1[C@H](c3ccccc3)[C@H](c3ccccc3)OC(=O)[C@H]1[C@@H]2C(=O)N1CCN(c2ncccn2)CC1

>  <class>
bin C

$$$$
>  <molecule>
COCCOC(=O)N1C(=O)[C@@]2(c3cc(C#CCNC(N)=O)ccc31)[C@H](C(=O)N1CCN(c3ncccn3)CC1)[C@H]1C(=O)O[C@H](c3ccccc3)[C@H](c3ccccc3)N1[C@@H]2c1ccc(OCCO)cc1

>  <class>
bin B

$$$$
>  <molecule>
[N-]=[N+]=NCc1ccccc1[C@@H]1OC(c2ccc(OCCCO)cc2)=N[C@]1(Cc1ccccc1)C(N)=O

>  <class>
bin A

$$$$
>  <molecule>
O=C(NCCN1CCOCC1)[C@@H]1c2ccccc2C(=O)N(C2CCCCC2)[C@H]1c1ccc(CO)cc1

>  <class>
bin A

$$$$
>  <molecule>
C=C(CCCC)C(=O)CC[C@@H](OC(=O)c1ccccc1-c1ccccc1C(=O)O)c1ccc(OCCO)cc1

>  <class>
bin B

$$$$
>  <molecule>
C=C(C)[C@@H]1CC=C(C(O)C2C=CC3C(=O)N(C)C(=O)C3N2Nc2ccccc2)CC1 (some centres not stated)

>  <class>
bin C

$$$$
>  <molecule>
COC(=O)[C@@]1(Cc2ccc(OC)cc2)[C@H]2c3cc(C(=O)N(C)C)n(C)c3C[C@H]2CN1C(=O)c1ccccc1

>  <class>
bin B

$$$$
>  <molecule>
CN(C)CCCCCCNC(=O)[C@H]1C[C@H]2C(=O)N[C@@H](CCCCN)C(=O)N2[C@H]1c1cccc(OCCO)c1

>  <class>
bin C

$$$$
>  <molecule>
Cc1ccc(S[C@]2(C(=O)NCCCN(C)C)CC(=O)N(Cc3ccccc3C(F)(F)F)[C@@H]2c2ccc(CO)cc2)cc1

>  <class>
bin A

$$$$
>  <molecule>
CCCc1cc2c(n1Cc1cc(F)cc(F)c1)C(C)C1CN(C(=O)c3ccccc3)C(C)(C(=O)OC)C21 (configuration not stated)

>  <class>
bin A

$$$$
>  <molecule>
Cc1nc2cc(Br)ccc2c(=O)o1

>  <class>
bin B

$$$$
>  <molecule>
CC#CC(=O)Oc1ccccc1C=CC(=O)OCC

>  <class>
bin B

$$$$
>  <molecule>
CC1CC/C=C\[C@H]2OC34C=CCN(Cc5ccccc5)C(=O)[C@H]3N(CCCO)C(=O)[C@@H]4C2C(=O)O1 (some centres not stated)

>  <class>
bin A

$$$$
>  <molecule>
O=C1C2C=CC(C(O)Cc3ccccc3)N(n3cnnc3)C2C(=O)N1Cc1ccccc1 (configuration not stated)

>  <class>
bin A

$$$$
>  <molecule>
C=CCOC(=O)[C@H]1[C@@H]2C(=O)O[C@@H](c3ccccc3)[C@@H](c3ccccc3)N2[C@@H](c2ccc(OCCOC(=O)[C@H]3C[C@H]4C(=O)N[C@@H](CCCC[N+](C)(C)C)C(=O)N4[C@H]3c3ccc(O)cc3)cc2)[C@]12C(=O)Nc1ccc(I)cc12

>  <class>
bin C

$$$$
>  <molecule>
CC1CC/C=C\[C@H]2OC34C=CCN(C(C)(C)C)C(=O)[C@H]3N(CCO)C(=O)[C@@H]4C2C(=O)O1 (some centres not stated)

>  <class>
bin B

$$$$
>  <molecule>
CC(=O)NCCCC[C@@H]1NC(=O)[C@H]2C[C@@H](C(=O)NCCCCCCNC(=O)CS)[C@@H](c3ccc(O)cc3)N2C1=O

>  <class>
bin C

$$$$
>  <molecule>
COc1ccc(C#Cc2ccc3c(c2)[C@]2(C(=O)N3)[C@H](c3ccccc3OCCO)N3[C@H](c4ccccc4)[C@H](c4ccccc4)OC(=O)[C@H]3[C@@H]2C(=O)Nc2nc3ccccc3s2)cc1

>  <class>
bin C

$$$$
>  <molecule>
COC(=O)[C@@]1(Cc2ccc(OC)cc2)[C@H]2c3cc(C(=O)N4CCCC4)n(Cc4ccc(C)c(F)c4F)c3C[C@H]2CN1C(=O)c1ccccc1

>  <class>
bin A

$$$$
>  <molecule>
CC(C)C[C@@H]1NC(=O)[C@H](C(C)C)NC(=O)[C@@]23C(=O)N[C@@H](Cc4ccccc4)C2[C@H](C)[C@@]2(C)O[C@H]2C3/C=C/CC/C=C/CNC1=O (some centres not stated)

>  <class>
bin C

$$$$
>  <molecule>
O=C1O[C@@H](c2ccccc2)[C@@H](c2ccccc2)N2[C@@H](c3ccccc3OCCO)[C@]3(C(=O)Nc4ccc(C#CC5=CCCCC5)cc43)[C@@H](C(=O)N3CCCCCCC3)[C@H]12

>  <class>
bin C

$$$$
